system_under_test: USP5 ZnF-UBD (USP5 171-290) (Homo sapiens, UniProt P45974)
Sequence (P45974 171-290): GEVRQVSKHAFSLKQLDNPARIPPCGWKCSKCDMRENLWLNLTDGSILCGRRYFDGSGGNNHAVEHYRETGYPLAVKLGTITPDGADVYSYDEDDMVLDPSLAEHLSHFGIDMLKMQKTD
reported_conditions: FITC-ubiquitin displacement, N=1; 100 µM; inhibitor
Let's look at some compounds and their measured % inhibition.
measurement_type: % inhibition

1) Cc1ccc(C(=O)O)cc1S(=O)(=O)Nc1cccc(C(=O)CCC(=O)O)c1    36%
2) CN(c1ccc(S(C)(=O)=O)cc1)S(=O)(=O)c1ccc(C(=O)CCC(=O)O)cc1    61%
3) O=C(O)CCC(=O)c1cccc(NS(=O)(=O)c2ccc(Cl)c(C(=O)O)c2)c1    26%
4) Cc1ccc(OC(C)CNS(=O)(=O)c2ccc(C(=O)CCC(=O)O)cc2)cc1 (stereo not shown)    37%
